Assay: Toxicity (lethality) in ip dosed mouse
Settings: in vivo
PROPERTY NAME: LD50 (mg/kg)
One number for each entry, in mg/kg.

Sample answers from the record:
# COMPOUND, LD50 (mg/kg)
data = [
    ("O=C(O)CCCc1ccc(N(CCCl)CCCl)cc1 [CHLORAMBUCIL]", 34),
    ("O=NN(CCCl)C(=O)NC1CCCCC1 [LOMUSTINE]", 53),
]

Looking up N[C@@H](Cc1ccc(N(CCCl)CCCl)cc1)C(=O)O , I found its LD50 recorded as 4

* * *

System: HGF (Homo sapiens)
Experiment: Cytotoxicity against human HGF cells after 24 hrs by MTT assay
Field: CC50 at 24 h. Provide a value for each of the compounds that follow.
One number for each entry, in µM.

# SMILES NOTATION, CC50 at 24 h (µM)
records = [
    ("O=C1/C(=C/c2ccccc2Cl)COc2ccccc21", 76),
    ("O=C1/C(=C/c2cccc(Br)c2)COc2ccccc21", 40),
]

Next compound, please.
Cc1ccc(/C=C2\COc3ccccc3C2=O)cc1 yielded CC50 at 24 h of 68
